Values from patent US20150065709A1

# ASSAY_PROTOCOL: Pharmacokinetic experiments in CD-1 mice
# Assay type: in vivo
# MEASUREMENT_PARAMETERS: male, mouse, plasma, 1 mg/kg Intravenous Injection
Listed next: entries and their corresponding clearance.
QUANTITY_KIND: clearance

1. CN(C/C=C/C(=O)Nc1cc2c(Nc3ccc(F)c(Cl)c3)ncnc2cc1OC1CCOC1)Cc1ccccc1 (stereo not drawn) [Compound Ia] | 153 mL/min/kg
2. CN(C)C/C=C/C(=O)Nc1cc2c(Nc3ccc(F)c(Cl)c3)ncnc2cc1OC(F)F [Compound Ie] | 115 mL/min/kg
3. COc1cc2ncnc(Nc3ccc(F)c(Cl)c3)c2cc1NC(=O)/C=C/CN(C)Cc1ccccc1 [Compound Ic] | 87.2 mL/min/kg
